biological target: Fibroblast growth factor receptor 2 (Homo sapiens) (UniProt P21802); conditions: at 1 µM
Sequence (P21802 22-821 limits assumed): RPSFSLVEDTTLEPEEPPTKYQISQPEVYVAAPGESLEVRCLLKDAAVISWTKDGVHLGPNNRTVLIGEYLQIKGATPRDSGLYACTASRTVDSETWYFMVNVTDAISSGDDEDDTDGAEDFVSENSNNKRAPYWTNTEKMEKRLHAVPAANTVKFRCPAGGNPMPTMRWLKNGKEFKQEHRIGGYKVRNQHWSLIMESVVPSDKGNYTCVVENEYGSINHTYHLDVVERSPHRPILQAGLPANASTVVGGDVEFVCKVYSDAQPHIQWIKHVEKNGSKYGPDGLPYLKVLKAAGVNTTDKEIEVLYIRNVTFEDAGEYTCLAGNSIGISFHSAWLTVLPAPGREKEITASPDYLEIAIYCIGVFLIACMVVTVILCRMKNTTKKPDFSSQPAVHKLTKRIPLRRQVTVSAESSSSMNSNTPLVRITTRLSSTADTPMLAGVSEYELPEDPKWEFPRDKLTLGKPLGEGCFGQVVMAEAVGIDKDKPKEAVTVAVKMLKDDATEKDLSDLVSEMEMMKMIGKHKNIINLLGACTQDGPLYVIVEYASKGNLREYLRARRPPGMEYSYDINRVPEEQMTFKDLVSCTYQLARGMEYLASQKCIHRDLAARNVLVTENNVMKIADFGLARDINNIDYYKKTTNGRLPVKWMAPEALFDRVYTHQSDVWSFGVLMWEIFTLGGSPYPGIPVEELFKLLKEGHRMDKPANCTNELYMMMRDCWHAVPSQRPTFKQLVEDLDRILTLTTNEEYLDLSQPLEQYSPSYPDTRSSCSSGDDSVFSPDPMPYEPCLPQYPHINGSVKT
residual activity overview
measurement-name: residual activity (%)

1) CSc1nc(-c2ccc(F)cc2)c(-c2ccnc(NC(C)c3ccccc3)c2)[nH]1 (stereo not given)    87
2) COc1ccc2c(c1)c(C1=C(c3c[nH]c4ccccc34)C(=O)NC1=O)cn2CCCN(C)C    72
3) O=C1NC(=O)C(c2cn(CCCn3ccnc3)c3ccccc23)=C1Nc1ccccc1    113
4) O=C(CCCc1ccc(-c2ccccc2F)cc1)Nc1ccc(O)cc1    99
5) COc1ccc(COc2ccc(Cc3cnc(N)nc3N)cc2OC)cc1    112
6) NC(=O)c1ccc(-c2nc(-c3ccc4c(c3)OCCO4)c(-c3ccccn3)[nH]2)cc1    117
7) CC(C)c1nn(-c2c(Cl)cccc2Cl)c2nc(Cc3ccc(OCCO)cc3)[nH]c(=O)c12    108
8) CCCCc1c(-c2ccc(OC)cc2)[nH]c2nccnc12    88
9) NC(=O)Nc1sc(-c2ccc(F)cc2)cc1C(N)=O    50
10) COc1cc2nccc(Oc3ccc(NC(=O)Nc4cc(C)on4)c(Cl)c3)c2cc1OC    25
11) CCOC(=O)c1c(C)[nH]c(/C=C2\C(=O)Nc3ccccc32)c1C    83
12) O=C1Nc2ccc(Cl)cc2/C1=C/c1cc(Cl)c(O)c(Cl)c1    80
13) O=C1NC(=O)C(c2c[nH]c3ccccc23)=C1c1c[nH]c2ccccc12    37
14) NCCNc1ncc(C(N)=O)c(Nc2cccc(C(F)(F)F)c2)n1    100
15) O=c1cc(N2CCOCC2)oc2c1ccc1ccccc12    111
16) c1ccc(-c2cnc(Nc3ccc(OCCN4CCCC4)cc3)s2)cc1    80
17) Nc1nccc(-c2c(-c3ccc(F)cc3)ncn2C2CCNCC2)n1    113
18) Nc1nc(Nc2ccc(S(N)(=O)=O)cc2)nn1C(=O)c1c(F)cccc1F    36
19) CCOc1nc(NC(=O)Cc2cc(OC)ccc2OC)cc(N)c1C#N    100
20) CC(C)(C)n1nc(Cc2cccc3ccccc23)c2c(N)ncnc21    62

----------
residual activity overview
biological target: Tyrosine-protein kinase ABL1 (Homo sapiens) (UniProt P00519); conditions: at 1 µM
Sequence (P00519 whole entry): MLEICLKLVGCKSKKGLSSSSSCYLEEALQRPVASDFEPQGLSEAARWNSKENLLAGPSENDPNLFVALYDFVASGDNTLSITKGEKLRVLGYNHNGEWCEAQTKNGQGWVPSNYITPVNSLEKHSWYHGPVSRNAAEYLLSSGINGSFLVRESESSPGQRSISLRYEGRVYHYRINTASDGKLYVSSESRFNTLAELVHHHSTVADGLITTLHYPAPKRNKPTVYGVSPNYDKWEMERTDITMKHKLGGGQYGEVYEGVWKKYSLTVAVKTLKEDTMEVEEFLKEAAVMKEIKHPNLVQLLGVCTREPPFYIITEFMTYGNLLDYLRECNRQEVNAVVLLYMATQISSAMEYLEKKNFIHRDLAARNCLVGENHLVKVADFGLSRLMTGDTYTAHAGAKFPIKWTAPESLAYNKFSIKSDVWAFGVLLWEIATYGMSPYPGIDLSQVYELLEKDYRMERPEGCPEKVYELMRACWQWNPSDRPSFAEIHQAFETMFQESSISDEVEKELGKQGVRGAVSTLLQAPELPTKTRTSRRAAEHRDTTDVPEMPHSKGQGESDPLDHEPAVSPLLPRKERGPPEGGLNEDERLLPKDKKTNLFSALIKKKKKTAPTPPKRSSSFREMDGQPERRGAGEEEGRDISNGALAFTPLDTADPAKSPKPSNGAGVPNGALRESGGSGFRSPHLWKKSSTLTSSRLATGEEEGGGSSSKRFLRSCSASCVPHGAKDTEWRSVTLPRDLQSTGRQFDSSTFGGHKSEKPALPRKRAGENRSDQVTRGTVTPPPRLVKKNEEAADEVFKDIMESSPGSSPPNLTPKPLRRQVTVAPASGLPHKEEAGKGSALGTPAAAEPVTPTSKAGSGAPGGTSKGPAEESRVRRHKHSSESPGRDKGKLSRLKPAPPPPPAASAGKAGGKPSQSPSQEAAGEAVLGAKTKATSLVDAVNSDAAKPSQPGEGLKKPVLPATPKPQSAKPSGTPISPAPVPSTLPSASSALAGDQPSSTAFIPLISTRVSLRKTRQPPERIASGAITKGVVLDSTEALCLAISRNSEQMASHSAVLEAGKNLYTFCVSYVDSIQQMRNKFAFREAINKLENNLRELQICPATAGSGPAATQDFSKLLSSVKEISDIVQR
measurement-name: residual activity

1) CN(C)S(=O)(=O)c1ccc2c(c1)/C(=C/c1cc3c([nH]1)CCCC3)C(=O)N2    77%
2) COc1ccc(-c2cnc3c(-c4ccsc4)cnn3c2)cc1    76%
3) CC(C)c1nn(-c2c(Cl)cccc2Cl)c2nc(Cc3ccc(OCCO)cc3)[nH]c(=O)c12    97%
4) Nc1ncnc2c1cnn2-c1ccccc1    100%
5) O=C1NC(=O)c2c1c1c3ccccc3[nH]c1n1cncc21    80%
6) COc1ccc2c(c1)c(C1=C(c3c[nH]c4ccccc34)C(=O)NC1=O)cn2CCCN(C)C    107%
7) O=C1C(Cl)=C(N2C(=O)CCC2=O)C(=O)c2ccccc21    92%
8) COc1cc2nccc(Oc3ccc(NC(=S)NC(=O)c4ccccc4C)cc3)c2cc1OC    22%
9) O=c1cc(N2CCNCC2)oc2c(-c3ccccc3)cccc12    88%
10) Nc1n[nH]c2nc3ccccc3nc12    85%
11) O=c1cc(N2CCOCC2)oc2c1ccc1ccccc12    99%

----------
residual activity overview
target: ALK tyrosine kinase receptor (Homo sapiens) (UniProt Q9UM73); conditions: at 10 µM
Sequence (Q9UM73 19-1620 limits assumed): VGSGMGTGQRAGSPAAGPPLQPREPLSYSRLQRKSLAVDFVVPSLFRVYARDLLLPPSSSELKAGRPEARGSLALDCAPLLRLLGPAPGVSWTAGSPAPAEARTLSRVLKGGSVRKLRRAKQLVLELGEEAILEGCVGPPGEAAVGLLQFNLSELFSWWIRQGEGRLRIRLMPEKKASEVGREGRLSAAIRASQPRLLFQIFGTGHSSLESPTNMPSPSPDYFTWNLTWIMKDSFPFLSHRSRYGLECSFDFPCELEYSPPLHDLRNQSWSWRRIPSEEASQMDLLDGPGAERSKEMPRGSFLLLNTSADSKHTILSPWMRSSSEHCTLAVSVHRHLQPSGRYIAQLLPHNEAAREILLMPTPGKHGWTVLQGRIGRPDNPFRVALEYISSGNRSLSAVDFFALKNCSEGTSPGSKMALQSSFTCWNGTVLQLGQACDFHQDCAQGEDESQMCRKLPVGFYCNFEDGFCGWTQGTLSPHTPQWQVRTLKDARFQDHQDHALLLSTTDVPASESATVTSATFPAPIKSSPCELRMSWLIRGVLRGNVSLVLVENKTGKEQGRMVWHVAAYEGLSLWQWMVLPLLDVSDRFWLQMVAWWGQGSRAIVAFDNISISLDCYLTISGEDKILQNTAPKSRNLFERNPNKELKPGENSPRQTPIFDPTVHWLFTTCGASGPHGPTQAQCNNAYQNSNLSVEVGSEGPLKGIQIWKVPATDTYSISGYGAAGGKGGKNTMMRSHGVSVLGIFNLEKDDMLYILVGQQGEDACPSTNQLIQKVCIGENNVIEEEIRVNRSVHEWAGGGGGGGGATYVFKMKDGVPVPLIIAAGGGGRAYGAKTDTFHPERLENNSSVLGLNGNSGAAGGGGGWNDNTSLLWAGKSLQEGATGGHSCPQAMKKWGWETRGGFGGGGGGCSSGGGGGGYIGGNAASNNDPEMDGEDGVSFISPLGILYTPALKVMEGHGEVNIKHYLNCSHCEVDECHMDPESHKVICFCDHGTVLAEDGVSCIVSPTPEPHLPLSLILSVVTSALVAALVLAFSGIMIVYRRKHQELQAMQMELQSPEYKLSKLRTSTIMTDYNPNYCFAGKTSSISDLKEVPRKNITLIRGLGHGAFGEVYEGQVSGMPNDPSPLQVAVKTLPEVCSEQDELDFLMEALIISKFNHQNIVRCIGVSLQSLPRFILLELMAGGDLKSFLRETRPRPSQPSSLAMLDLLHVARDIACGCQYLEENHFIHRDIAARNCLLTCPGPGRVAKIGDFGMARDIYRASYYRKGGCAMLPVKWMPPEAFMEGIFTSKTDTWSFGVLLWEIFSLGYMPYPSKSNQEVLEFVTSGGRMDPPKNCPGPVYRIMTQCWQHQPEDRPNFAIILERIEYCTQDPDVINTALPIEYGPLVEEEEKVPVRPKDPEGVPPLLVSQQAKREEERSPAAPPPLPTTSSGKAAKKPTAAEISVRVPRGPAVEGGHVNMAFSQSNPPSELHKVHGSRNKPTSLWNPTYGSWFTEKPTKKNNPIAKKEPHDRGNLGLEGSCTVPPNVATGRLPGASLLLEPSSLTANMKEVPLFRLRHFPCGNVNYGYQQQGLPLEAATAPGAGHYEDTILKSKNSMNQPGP
measurement-name: residual activity

1. Cn1c2ccccc2c2c3c(c4c5ccccc5n(CCC#N)c4c21)CNC3=O    4%
2. NC(=O)c1ccc(-c2nc(-c3ccc4c(c3)OCCO4)c(-c3ccccn3)[nH]2)cc1    52%
3. COc1cc2ncnc(Nc3cccc(Cl)c3)c2cc1OC    107%
4. O=C1NC(=O)C(c2cn(CCCO)c3ncccc23)=C1c1cnccn1    67%
5. CC(C)(C)n1nc(Cc2cccc3ccccc23)c2c(N)ncnc21    49%
6. O=C1Nc2ccc(Cl)cc2/C1=C/c1cc(Cl)c(O)c(Cl)c1    19%

----------
target: NUAK family SNF1-like kinase 1 (Homo sapiens); settings: at 1 µM
Rule: measured residual activity below 60% gets T; anything equal to or greater than 60% gets F.

1. O=C(c1cc2cc(O)ccc2[nH]1)c1cc2cc(O)ccc2[nH]1    F
2. c1ccc(-c2cnc(Nc3ccc(OCCN4CCCC4)cc3)s2)cc1    F
3. CC(C)[C@H](CO)Nc1nc(Nc2cc(N)cc(Cl)c2)c2ncn(C(C)C)c2n1    T
4. CC(C)c1nn(-c2c(Cl)cccc2Cl)c2nc(Cc3ccc(OCCO)cc3)[nH]c(=O)c12    F
5. O=C1C(Cl)=C(N2C(=O)CCC2=O)C(=O)c2ccccc21    F
6. Nc1ncnc2c1c(-c1ccc(Oc3ccccc3)cc1)cn2C1CCCC1    F
7. COc1ccc2c(c1)c(C1=C(c3c[nH]c4ccccc34)C(=O)NC1=O)cn2CCCN(C)C    T
8. O=S(=O)(NCCNC/C=C/c1ccc(Br)cc1)c1cccc2cnccc12    T
9. CC(C)(C)c1nc2c3ccc(F)cc3c3c(=O)[nH]ccc3c2[nH]1    T
10. CCCCc1c(-c2ccc(OC)cc2)[nH]c2nccnc12    T
11. Oc1cccc(-c2nc(N3CCOCC3)c3oc4ncccc4c3n2)c1    F
12. Nc1ncnc2[nH]nc(Nc3ccc(F)cc3)c12    F
13. O=C(O)/C=C/c1cc(Br)c(Br)c(Br)c1Br    F
14. Nc1ncnc2c1cnn2-c1ccccc1    F
15. CCN(CC)CCNC(=O)c1c(C)[nH]c(/C=C2\C(=O)Nc3ccc(Cl)cc32)c1C    T
16. O=C(CCCc1ccc(-c2ccccc2F)cc1)Nc1ccc(O)cc1    F
17. NCCNc1ncc(C(N)=O)c(Nc2cccc(C(F)(F)F)c2)n1    T
18. COc1ccc(Cl)cc1NC(=O)Nc1cc(C)nc2ccccc12    F
19. O=c1cc(N2CCOCC2)oc2c1ccc1ccccc12    F
20. CCOC(=O)c1c(C)[nH]c(/C=C2\C(=O)Nc3ccccc32)c1C    F
21. O=C1Nc2ccc(Cl)cc2/C1=C/c1cc(Cl)c(O)c(Cl)c1    F
22. Cc1cc(C)c(/C=C2\C(=O)Nc3ccccc32)[nH]1    T
23. CCCCc1c(-c2ccc(O)cc2)[nH]c2nccnc12    T
24. Nc1n[nH]c2nc3ccccc3nc12    F

----------
molecular target: Death-associated protein kinase 3 (Homo sapiens); conditions: at 10 µM
measurement-name: residual activity (%)

1. NC(=O)Nc1sc(-c2ccc(F)cc2)cc1C(N)=O    50
2. CC(C)N(CCC(=O)c1ccc2ccccc2c1)Cc1ccccc1    88
3. O=C(c1cc2cc(O)ccc2[nH]1)c1cc2cc(O)ccc2[nH]1    49
4. O=c1cc(N2CCOCC2)oc2c1ccc1ccccc12    85
5. O=C1NC(=O)c2c1c1c3ccccc3[nH]c1n1cncc21    30
6. O=c1cc(N2CCNCC2)oc2c(-c3ccccc3)cccc12    99

----------
biological target: Calcium/calmodulin-dependent protein kinase type II subunit beta (Homo sapiens) (UniProt Q13554); conditions: at 10 µM
Sequence (Q13554 whole entry): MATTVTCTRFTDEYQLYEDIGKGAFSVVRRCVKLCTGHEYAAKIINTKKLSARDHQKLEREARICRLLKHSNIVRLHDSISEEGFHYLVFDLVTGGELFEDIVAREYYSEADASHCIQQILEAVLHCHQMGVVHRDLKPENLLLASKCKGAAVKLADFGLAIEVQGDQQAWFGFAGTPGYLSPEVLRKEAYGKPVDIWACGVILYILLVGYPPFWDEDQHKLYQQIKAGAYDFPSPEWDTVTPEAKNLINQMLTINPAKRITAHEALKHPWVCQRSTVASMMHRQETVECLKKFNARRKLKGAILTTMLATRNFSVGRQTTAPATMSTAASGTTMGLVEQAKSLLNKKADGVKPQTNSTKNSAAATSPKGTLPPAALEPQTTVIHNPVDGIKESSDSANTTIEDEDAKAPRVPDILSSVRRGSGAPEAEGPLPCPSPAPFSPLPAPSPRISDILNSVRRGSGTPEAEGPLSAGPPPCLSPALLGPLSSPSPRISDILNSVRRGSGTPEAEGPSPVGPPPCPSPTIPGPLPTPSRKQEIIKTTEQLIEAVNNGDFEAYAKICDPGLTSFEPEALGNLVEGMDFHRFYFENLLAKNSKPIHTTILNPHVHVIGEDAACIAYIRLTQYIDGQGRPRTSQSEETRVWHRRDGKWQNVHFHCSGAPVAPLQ
measurement-name: residual activity (%)

1) Nc1ncnc2[nH]nc(Nc3ccc(F)cc3)c12    20
2) Nc1ncnc2c1cnn2-c1ccccc1    35
3) CSc1nc(-c2ccc(F)cc2)c(-c2ccnc(NC(C)c3ccccc3)c2)[nH]1 (stereo not given)    75
4) CN([C@@H](Cc1ccc(OS(=O)(=O)c2cccc3cnccc23)cc1)C(=O)N1CCN(c2ccccc2)CC1)S(=O)(=O)c1cccc2cnccc12    78
5) CCN(CC)CCNC(=O)c1c(C)[nH]c(/C=C2\C(=O)Nc3ccc(Cl)cc32)c1C    1

----------
target: Calcium/calmodulin-dependent protein kinase type 1 (Homo sapiens); conditions: at 1 µM
residual activity overview
measurement-name: residual activity (%)

1. CCCCc1c(-c2ccc(OC)cc2)[nH]c2nccnc12    109
2. Nc1ncnc2c1c(-c1ccc(Oc3ccccc3)cc1)cn2C1CCCC1    95
3. Cn1c2ccccc2c2c3c(c4c5ccccc5n(CCC#N)c4c21)CNC3=O    80
4. Cn1sc(=O)n(Cc2ccccc2)c1=O    75
5. O=c1cc(N2CCOCC2)oc2c1ccc1ccccc12    104
6. c1ccc(-c2cnc(Nc3ccc(OCCN4CCCC4)cc3)s2)cc1    101
7. NCCNc1ncc(C(N)=O)c(Nc2cccc(C(F)(F)F)c2)n1    20
8. Nc1ncnc2[nH]nc(Nc3ccc(F)cc3)c12    91
9. O=C(O)/C=C/c1cc(Br)c(Br)c(Br)c1Br    102
10. O=C(c1ccccc1)c1ccc(N2CCOCC2)cc1O    95
11. O=c1cc(N2CCNCC2)oc2c(-c3ccccc3)cccc12    105
12. CC(C)(C)c1nc2c3ccc(F)cc3c3c(=O)[nH]ccc3c2[nH]1    60
